Measured interaction score, listed per entry for reference.
Target: T1, APC4336-AA
T1 chain: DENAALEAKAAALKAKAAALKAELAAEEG
Experiment: two-hybrid library CCmax;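 also: natural log of median RNA to DNA barcode read ratio; higher means stronger binding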
Conditions: mean of both orientations
assay.metric: interaction score

- binder: "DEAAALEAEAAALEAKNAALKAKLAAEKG [APC2257-AA]"
  assay.metric: "interaction score"
  reading: -1.71
- binder: "DEAAALEAKNAALKAKNAALKAELAAEEG [APC2556-AA]"
  assay.metric: "interaction score"
  reading: -1.77
- binder: "DEAAALEAELAANEAKLAAIKAKLAAIKG [APC2811-AA]"
  assay.metric: "interaction score"
  reading: -1.61
- binder: "DELAAIEAEAAALEAEAAALEAEAAALEG [APC222-AA]"
  assay.metric: "interaction score"
  reading: -1.82
- binder: "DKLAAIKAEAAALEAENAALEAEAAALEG [APC1242-AA]"
  assay.metric: "interaction score"
  reading: -2.21
- binder: "DKAAALKAKAAALKAEAAALEAKAAALKG [APC3323-AA]"
  assay.metric: "interaction score"
  reading: -2.27
- binder: "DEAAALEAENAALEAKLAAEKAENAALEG [APC2474-AA]"
  assay.metric: "interaction score"
  reading: -1.67
- binder: "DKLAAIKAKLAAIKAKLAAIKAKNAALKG [APC1115-AA]"
  assay.metric: "interaction score"
  reading: -1.61
- binder: "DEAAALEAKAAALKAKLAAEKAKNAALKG [APC2375-AA]"
  assay.metric: "interaction score"
  reading: -1.65
- binder: "DKAAALKAEAAALEAELAAEEAKNAALKG [APC3265-AA]"
  assay.metric: "interaction score"
  reading: -1.54
- binder: "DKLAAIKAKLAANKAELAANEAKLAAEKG [APC1987-AA]"
  assay.metric: "interaction score"
  reading: -1.72
- binder: "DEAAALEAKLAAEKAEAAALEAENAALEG [APC2724-AA]"
  assay.metric: "interaction score"
  reading: -2.23
- binder: "DKAAALKAKAAALKAKNAALKAENAALEG [APC3354-AA]"
  assay.metric: "interaction score"
  reading: -2.08
- binder: "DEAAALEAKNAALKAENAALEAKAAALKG [APC2543-AA]"
  assay.metric: "interaction score"
  reading: -1.73
- binder: "DEAAALEAKLAANKAELAANEAKLAAIKG [APC2981-AA]"
  assay.metric: "interaction score"
  reading: -2.05

Attribution: paper PMC10397247
